experiment: Inhibition of NS5A in HCV genotype-1a infected in human HuH7 cells by luciferase reporter gene assay; type: cell-based, Hepatitis C virus subtype 1a; settings: Hepatitis C virus, Huh-7
Property name: EC50 (nM)

P: COC(=O)N[C@H](C(=O)N1CCC[C@H]1c1ncc(-c2ccc([C@H]3CC[C@H](c4cnc([C@@H]5CCCN5C(=O)[C@H](NC(=O)OC)c5ccccc5)[nH]4)CC3)cc2)[nH]1)C(C)C
Q: COC(=O)N[C@@H](C(=O)N1CCC[C@H]1c1ncc(-c2cc(F)c(N3CCC(c4cnc([C@@H]5CCCN5C(=O)[C@H](NC(=O)OC)c5ccccc5)[nH]4)CC3)c(F)c2)[nH]1)c1ccccc1
R: COC(=O)N[C@H](C(=O)N1CCC[C@H]1c1ncc(-c2cc(F)c(N3CCC(c4cnc([C@@H]5CCCCN5C(=O)[C@@H](NC(=O)OC)C(C)C)[nH]4)CC3)c(F)c2)[nH]1)C(C)C
Please list these compounds in decreasing order of EC50. Put the labels in the order asked and list them.
R, Q, P

----------
test: Inhibition of NS5A in HCV genotype-1a infected in human HuH7 cells by luciferase reporter gene assay; format: cell-based, Hepatitis C virus subtype 1a; details: Hepatitis C virus, Huh-7
pEC50: −log10 of the molar value.
Attribute: pEC50

Worked set:
# Entry smiles, pEC50
measured = [
    ("COC(=O)N[C@@H](C(=O)N1CCC[C@H]1c1ncc(-c2ccc([C@H]3CC[C@H](c4cnc([C@@H]5CCCN5C(=O)[C@H](NC(=O)OC)c5ccccc5)[nH]4)CC3)cc2)[nH]1)c1ccccc1", 8.28),
    ("COC(=O)N[C@@H](C(=O)N1CCC[C@H]1c1ncc(-c2cc(F)c(N3CCC(c4cnc([C@@H]5CCCN5C(=O)[C@H](NC(=O)OC)C(C)C)[nH]4)CC3)c(F)c2)[nH]1)C(C)C", "< 7.00"),
]

Memo: COC(=O)N[C@H](C(=O)N1CCC[C@H]1c1ncc(-c2cc(F)c(N3CCC(C)(c4cnc([C@@H]5CCCN5C(=O)[C@@H](NC(=O)OC)C(C)C)[nH]4)CC3)c(F)c2)[nH]1)C(C)C , reported pEC50: < 7.00

----------
test: Inhibition of NS5A in HCV genotype-1a infected in human HuH7 cells by luciferase reporter gene assay; type: cell-based, Hepatitis C virus subtype 1a; settings: Hepatitis C virus, Huh-7
pEC50: −log10 of the molar value.
Property name: pEC50

Worked set:
# Compound, pEC50
rows = [
    ("COC(=O)N[C@@H](C(=O)N1CCC[C@H]1c1ncc(-c2ccc(N3CCC(c4cnc([C@@H]5CCCN5C(=O)[C@H](NC(=O)OC)c5ccccc5)[nH]4)CC3)c(F)c2)[nH]1)c1ccccc1", 7.42),
    ("COC(=O)N[C@@H](C(=O)N1CCC[C@H]1c1ncc(-c2cc(F)c(N3CCC(c4cnc([C@@H]5COCCN5C(=O)[C@H](NC(=O)OC)c5ccccc5)[nH]4)CC3)c(F)c2)[nH]1)c1ccccc1", 7.42),
    ("COC(=O)N[C@H](C(=O)N1CCC[C@H]1c1ncc(-c2ccc([C@H]3CC[C@H](c4cnc([C@@H]5CCCN5C(=O)[C@@H](c5ccccc5)N(C)C)[nH]4)CC3)cc2)[nH]1)C(C)C", 8.77),
    ("COC(=O)N[C@@H](C(=O)N1CCC[C@H]1c1ncc(-c2ccc(-c3ccc(-c4cnc([C@@H]5CCCN5C(=O)[C@H](NC(=O)OC)c5ccccc5)[nH]4)cc3)cc2)[nH]1)c1ccccc1", 10.10),
]

a: COC(=O)N[C@@H](C)C(=O)N1CCC[C@H]1c1ncc(-c2ccc([C@H]3CC[C@H](c4cnc([C@@H]5CCCN5C(=O)[C@H](C)NC(=O)OC)[nH]4)CC3)cc2)[nH]1
b: COC(=O)N[C@H](C(=O)N1CCC[C@H]1c1ncc(-c2ccc(-c3ccc(-c4cnc([C@@H]5CCCN5C(=O)[C@@H](NC(=O)OC)C(C)C)[nH]4)cc3)cc2)[nH]1)C(C)C [DACLATASVIR]
Of the two listed items, a and b , which carries the larger pEC50 figure? Answer format: the label of the selected item.
b

----------
experiment: Half life in Sprague-Dawley rat at 2 mg/kg, iv; assay type: ADME, organism-based; set-up: dose 2 mg/kg, route intravenous; details: in vivo
Property name: half-life (h)
Give the number; h is assumed, so skip it.

Memo: COC(=O)N[C@@H](C(=O)N1CCC[C@H]1c1ncc(-c2ccc(N3CCC(c4cnc([C@@H]5CCCN5C(=O)[C@H](NC(=O)OC)c5ccccc5)[nH]4)CC3)c(F)c2)[nH]1)c1ccccc1 , reported half-life: 1.9

----------
test: Cmax in Sprague-Dawley rat at 5 mg/kg, po; assay type: ADME, organism-based; parameters: dose 5 mg/kg, route oral; conditions: in vivo
Property name: Cmax (ng/mL)

P: COC(=O)N[C@H](C(=O)N1CCC[C@H]1c1ncc(-c2ccc(C34CCC(c5cnc([C@@H]6CCCN6C(=O)[C@@H](NC(=O)OC)C(C)C)[nH]5)(CC3)CC4)cc2)[nH]1)C(C)C
Q: COC(=O)N[C@H](C(=O)N1CCC[C@H]1c1ncc(-c2ccc([C@H]3CC[C@H](c4cnc([C@@H]5CCCN5C(=O)[C@@H](NC(=O)OC)C(C)C)[nH]4)CC3)cc2)[nH]1)C(C)C
Identify the entry with the smaller Cmax: P or Q . Answer format: the label of the selected item.
Q

----------
test: Plasma concentration in Sprague-Dawley rat at 10 mg/kg, po after 4 hrs; assay type: ADME, organism-based; parameters: dose 10 mg/kg, route oral
Property name: concentration at 4 h (ng/mL)
Give the number; ng/mL is assumed, so skip it.

Memo: COC(=O)N[C@@H](C(=O)N1CCC[C@H]1c1ncc(-c2ccc(N3CCC(c4cnc([C@@H]5CCCN5C(=O)[C@H](NC(=O)OC)c5ccccc5)[nH]4)CC3)c(F)c2)[nH]1)c1ccccc1 , reported concentration at 4 h: 8.4

----------
test: AUClast in cynomolgus monkey at 1 mg/kg, iv; assay type: ADME, organism-based, Macaca fascicularis; set-up: dose 1 mg/kg, route intravenous, time 0 - last; conditions: plasma
Property name: AUC(0-t) (ng·h/mL)
Give the number; ng·h/mL is assumed, so skip it.

Memo: COC(=O)N[C@H](C(=O)N1CCC[C@H]1c1ncc(-c2ccc(C34CCC(c5cnc([C@@H]6CCCN6C(=O)[C@@H](NC(=O)OC)C(C)C)[nH]5)(CC3)CC4)cc2)[nH]1)C(C)C , reported AUC(0-t): 2570

----------
test: Half life in Sprague-Dawley rat at 1 mg/kg, iv; format: ADME, organism-based; design: dose 1 mg/kg, route intravenous; details: in vivo
Property name: half-life (h)

# Entry smiles, half-life / h
measured = [
    ("COC(=O)N[C@H](C(=O)N1CCC[C@H]1c1ncc(-c2ccc([C@H]3CC[C@H](c4cnc([C@@H]5CCCN5C(=O)[C@@H](NC(=O)OC)C(C)C)[nH]4)CC3)cc2)[nH]1)C(C)C", 1.33),
    ("COC(=O)N[C@H](C(=O)N1CCC[C@H]1c1ncc(-c2ccc(C34CCC(c5cnc([C@@H]6CCCN6C(=O)[C@@H](NC(=O)OC)C(C)C)[nH]5)(CC3)CC4)cc2)[nH]1)C(C)C", 1.2),
]

----------
test: AUClast in Sprague-Dawley rat at 10 mg/kg, po; format: ADME, organism-based; set-up: time 0 - last, dose 10 mg/kg, route oral; conditions: plasma
Property name: AUC(0-t) (ng·h/mL)

a: COC(=O)N[C@@H](C(=O)N1CCC[C@H]1c1ncc(-c2ccc(N3CCC(c4cnc([C@@H]5CCCN5C(=O)[C@H](NC(=O)OC)c5ccccc5)[nH]4)CC3)c(F)c2)[nH]1)c1ccccc1
b: COC(=O)N[C@@H](C(=O)N1CCC[C@H]1c1ncc(-c2ccc([C@H]3CC[C@H](c4cnc([C@@H]5CCCN5C(=O)[C@@H](c5ccccc5)N(C)C)[nH]4)CC3)cc2)[nH]1)c1ccccc1
Identify the entry with the smaller AUC(0-t): a or b . Answer format: the label of the selected item.
a

----------
test: Oral bioavailability in Sprague-Dawley rat at 10 mg/kg; type: ADME, organism-based; details: in vivo
Property name: bioavailability (%)
Give the number; % is assumed, so skip it.

Memo: COC(=O)N[C@@H](C(=O)N1CCC[C@H]1c1ncc(-c2ccc(N3CCC(c4cnc([C@@H]5CCCN5C(=O)[C@H](NC(=O)OC)c5ccccc5)[nH]4)CC3)c(F)c2)[nH]1)c1ccccc1 , reported bioavailability: 1.2

----------
assay: Plasma concentration in Sprague-Dawley rat […] at 100 mg/kg, po after 4 hrs; format: ADME, organism-based; parameters: dose 100 mg/kg, route oral
Property name: concentration at 4 h (ng/mL)
Give the number; ng/mL is assumed, so skip it.

Memo: COC(=O)N[C@H](C(=O)N1CCC[C@H]1c1ncc(-c2ccc(C34CCC(c5cnc([C@@H]6CCCN6C(=O)[C@@H](NC(=O)OC)C(C)C)[nH]5)(CC3)CC4)cc2)[nH]1)C(C)C , reported concentration at 4 h: 15800
